assay: chemical genetic growth profiling, strain panel (AID 1159580);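 note: tested at 20 µM; growth read once vehicle control cultures reached saturation at 30 °C; 1 = growth at the plate median or of vehicle wells; lower values mean less growth of the strain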; settings: S. cerevisiae deletion strains, growth OD, locus YLR258W, strain gsy2, hits give low values
In all, about 5,500 compounds went through this assay and about 2,000 (36%) were called active. About 18% were inconclusive and are not listed. The list shows a part of the results.
observable: normalized growth

CCCCOC(=O)c1ccccc1C(=O)OCCCC: 0.974
CCCCC(=O)Oc1ccccc1C(=O)O: 0.983
CC(C)[C@@H]1CC[C@@H](C)C[C@H]1O: 0.99
Cc1cccc(C)c1NC1=NCCCS1: 0.995
CN1C(C(=O)Nc2ccccn2)=C(O)c2ccccc2S1(=O)=O: 0.95
CC1C[C@H]2CC(=O)[C@H]3CCCN4CCC[C@H]2[C@]34C1 (some centres not stated): 1.03
C=CCCCCCCCCCCCC(O)CC(O)COC(C)=O (configuration not stated) (tested in a mixture with another compound): 0.906
O=C1OC2(c3ccc(O)cc3Oc3cc(O)ccc32)c2ccccc21: 1.01
C#CCCCCCCCCCCCC(O)CC(O)CO (configuration not stated): 0.99
O=C(O)c1ccccc1-c1c2cc(Br)c(=O)cc-2oc2[c]([Hg])c(O)c(Br)cc12: 1.04
CCN(CC)CCOC(=O)c1ccc(N)cc1: 0.975
Cc1cc(NC(=O)C2=C(O)c3ccccc3S(=O)(=O)N2C)no1: 0.971
